Target: T1, His-tagged CEACAM1 (human, UniProt P13688 35-428)
T1 construct: 45 kDa SPR analyte; also called CEACAM1-HIS; CEACAM1 analyte
T1 sequence: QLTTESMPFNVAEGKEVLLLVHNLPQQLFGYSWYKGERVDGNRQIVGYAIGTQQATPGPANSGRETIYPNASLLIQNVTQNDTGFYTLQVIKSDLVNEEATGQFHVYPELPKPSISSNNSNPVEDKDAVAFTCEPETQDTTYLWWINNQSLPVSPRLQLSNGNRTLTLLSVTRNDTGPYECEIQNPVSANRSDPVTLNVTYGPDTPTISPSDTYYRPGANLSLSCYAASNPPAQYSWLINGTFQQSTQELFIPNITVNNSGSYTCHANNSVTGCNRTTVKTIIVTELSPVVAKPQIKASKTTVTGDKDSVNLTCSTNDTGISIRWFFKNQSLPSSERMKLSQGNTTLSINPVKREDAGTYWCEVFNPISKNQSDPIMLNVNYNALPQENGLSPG
Assay: SPR single-cycle, supernatant IgG captured
Assay readout: koff (s⁻¹)
Numbers only, in s⁻¹.

Recorded results for 2 binders are shown here.
CP09C02/Vκ8 S29A (antibody, IgG4, V domains shown, IgG4 (S241P), kappa) VH: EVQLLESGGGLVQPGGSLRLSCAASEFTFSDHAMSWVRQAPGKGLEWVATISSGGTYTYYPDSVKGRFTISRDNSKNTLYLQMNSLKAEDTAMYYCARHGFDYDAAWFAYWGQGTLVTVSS VL: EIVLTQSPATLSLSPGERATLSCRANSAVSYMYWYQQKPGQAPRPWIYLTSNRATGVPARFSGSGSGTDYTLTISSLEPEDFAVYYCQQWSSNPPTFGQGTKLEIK = 0.017
CP08B01/Vκ8 S29A (antibody, IgG4, V domains shown, IgG4 (S241P), kappa) VH: EVQLLESGGGLVQPGGSLRLSCAASGFTFSAHAMSWVRQAPGKGLEWVATISSGGTYTYYPDSVKGRFTISRDNSKNTLYLQMNSLKAEDTAMYYCARHDFDYDAAWFAYWGQGTLVTVSS VL: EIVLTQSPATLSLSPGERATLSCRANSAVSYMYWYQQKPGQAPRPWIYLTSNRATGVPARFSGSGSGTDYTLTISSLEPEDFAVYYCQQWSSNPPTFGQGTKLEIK = 0.044

Now take the following binder into account.
Query (binder): CP09B02/Vκ8 S29A (antibody, IgG4, V domains shown, IgG4 (S241P), kappa) VH: EVQLLESGGGLVQPGGSLRLSCAASGFTFTSHAISWVRQAPGKGLEWVATISSGGTYTYYPDSVKGRFTISRDNSKNTLYLQMNSLKAEDTAMYYCARHDFDYDAAWFAYWGQGTLVTVSS VL: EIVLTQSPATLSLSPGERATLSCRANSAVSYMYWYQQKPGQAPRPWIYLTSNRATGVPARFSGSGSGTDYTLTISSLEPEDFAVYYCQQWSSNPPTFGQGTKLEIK ; field requested: koff 0.04
